Source listed as patent US20120316071A1.

# experimental.target: T1, Recombinant Human DLL4 (human, UniProt Q9NR61 27-524)
# T1 construct: Bought recombinant human DLL4 (R&D Systems Cat#1506-D4/CF); That entry includes the signal peptide (amino acids 1-25), the transmembrane region and the cytoplasmic domain; also called delta-like protein 4; Delta-like ligand 4
# experiment.notes: ECL (MSD) multispot binding assay, DLL4 spotted on plate, purified Fab in solution; signal over blank
Recorded ECL Signal/Blank for the following binders

INSERT INTO measurements (binder, readout_value) VALUES
  ('Fab VH5-51_IGHD5-18*01>3_IGHJ4*01 G100K/G104T T30A & V3-4_IGLJ1*01 (Fab, V domains shown, Fab expressed in E. coli with CH1 (plasmid A, His6 and Flag tags) and lambda CL (plasmid E); also called KT T30A) VH: EVQLVQSGAEVKKPGESLKISCKGSGYSFASYWIGWVRQMPGKGLEWMGIIYPGDSDTRYSPSFQGQVTISADKSISTAYLQWSSLKASDTAMYYCARRKYSYTYDYFDYWGQGTLVTVSS VL: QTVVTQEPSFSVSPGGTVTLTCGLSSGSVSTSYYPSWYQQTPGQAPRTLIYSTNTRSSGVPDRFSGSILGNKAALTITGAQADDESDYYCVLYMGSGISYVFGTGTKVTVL', 69.4);

Switching to the query record.
Qu. Look up ECL Signal/Blank: Fab VH5-51_IGHD5-18*01>3_IGHJ4*01 G100K/G104T F29A & V3-4_IGLJ1*01 (Fab, V domains shown, Fab expressed in E. coli with CH1 (plasmid A, His6 and Flag tags) and lambda CL (plasmid E); also called KT F29A) VH: EVQLVQSGAEVKKPGESLKISCKGSGYSATSYWIGWVRQMPGKGLEWMGIIYPGDSDTRYSPSFQGQVTISADKSISTAYLQWSSLKASDTAMYYCARRKYSYTYDYFDYWGQGTLVTVSS VL: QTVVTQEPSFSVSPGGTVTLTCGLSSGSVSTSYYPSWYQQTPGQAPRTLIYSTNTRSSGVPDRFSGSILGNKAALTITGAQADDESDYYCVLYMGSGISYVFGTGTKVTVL
Ans. 67.9
